# System: MDA-MB-435 melanoma
# TEST METHOD NOTES: NCI-60 one-dose screen, 48 h (100 = growth as untreated, 0 = no growth, -100 = all killed)
# STATED CONDITIONS: 10 µM unless noted
Compounds without any hit were thinned out: in the full panel of roughly 83,000, 20% have a hit.
QUANTITY MEASURED: growth (%)
Provide the reading as a plain figure in %.

Example molecules with recorded growth:
>>> observed_value("O=c1oc2cc(OS(=O)(=O)c3ccc(F)cc3)ccc2c2c1CCCCC2")
78.5
>>> observed_value("Cc1ccc(Cn2c(-c3cccs3)nc3ccccc32)cc1")
111
>>> observed_value("Cc1cc(C)c(S(=O)(=O)N2CCN(c3cc4c(cc3F)c(=O)c(C(=O)O)cn4C3CC3)CC2)c(C)c1")
76.1
>>> observed_value("Cc1sc(N=Nc2ccc(N(C)C)cc2)[n+]([O-])c1C")
101
>>> observed_value("Cc1cc(Nc2nc(C(=O)Nc3ccccc3)nc3ccccc23)n[nH]1")
64.9

Look at this molecule and give its reported growth. "NS(=O)(=O)c1ccc(NCC(=O)Nc2ccc(-c3nc4ccccc4s3)cc2)cc1"
77

Subsequent entry: CCN1C(=S)N(CC)C2Nn3c(s/c(=C4\C(=O)N(C)c5ccccc54)c3=O)=NC21 (stereo unspecified)
-43.1

Subsequent entry: "Cc1ccc(-c2csc3nc(C)c(CCCl)c(=O)n23)cc1"
97.3

Subsequent entry: "CCN(C(=O)c1cc2ncccc2[nH]1)[C@H]1CCC[C@@H](NCc2cccc(F)c2)C1"
97.4

Subsequent entry: "COc1ncc(-c2ccc3ncnc(Nc4cccc(Cl)c4)c3c2)cc1NS(=O)(=O)CCN1CCOCC1"
11.8

Subsequent entry: "Cc1cc(-c2ccccc2)c(C)n1Cc1ccc(Cl)cc1"
-18.4

Subsequent entry: "COC(=O)c1ccc(C)cc1"
101

====

# System: DU-145 prostate
# TEST METHOD NOTES: NCI-60 one-dose screen, 48 h (100 = growth as untreated, 0 = no growth, -100 = all killed)
# STATED CONDITIONS: 10 µM unless noted
About 83,000 compounds went through this panel and 20% of them were active in at least one assay; those are over-represented in the sample as a whole.
QUANTITY MEASURED: growth (%)
Provide the reading as a plain figure in %.

Look at this compound and give its reported growth. "CCCCCC(=O)OCc1ccccc1"
103

Subsequent entry: "COc1ccc(-c2nc3sccn3c2-c2ccnc(NCCCNS(=O)(=O)c3ccc(C)cc3)n2)cc1"
34.1

Subsequent entry: "COc1ccc(/C=C/c2nc(N3CCOCC3)c3cc(F)c(F)cc3n2)cc1OC"
53.5

Subsequent entry: CC1Cc2c(N(C)C)ncnc2N(C)c2ccc(Cl)cc21 (stereo unspecified)
52.4

Subsequent entry: CN(C)C1CCC(NC2=CC(=O)C=CC2=O)CC1 (stereo unspecified)
107

Subsequent entry: "COc1cc(NC(=O)CSc2nc3ccc(C)cc3c(=O)n2-c2ccccc2)cc(OC)c1OC"
110

====

# Tested on: RXF 393 renal
# TEST METHOD NOTES: NCI-60 one-dose screen, 48 h
# STATED CONDITIONS: 10 µM unless noted
This is part of a sample that, as a whole, favours compounds with a hit. Of some 83,000 tested, about 20% had one in any assay. The source made the active and inactive calls. Rule for the calls: active = growth percent below 10; inactive = the rest.
In this exercise, the only acceptable responses are true (1) for active, false (0) for inactive

Example results:
>>> category("O=C(c1ccncc1)N1N=C(c2ccc(Cl)cc2)CC1c1c[nH]c2ccccc12 (centres undefined)")
"false (0)"
>>> category("CCCC(C(=O)OCC)C(C)OC(=O)OCC (centres undefined)")
"false (0)"
>>> category("COc1cc(OC)c(C(=O)/C=C/c2ccc(C#N)cc2)c(OC)c1")
"false (0)"

Hi, do you know how "CNC(=O)c1cc(Oc2ccc3c(c2)sc2nc(-c4ccc(Cl)cc4)cn23)ccn1" came out in this test?
false (0)

Subsequent entry: "CN(C)C/C=C/C(=O)Nc1cc2c(Nc3ccc(F)c(Cl)c3F)ncnc2cc1OCCOC(F)F"
true (1)

Subsequent entry: "COc1ccc(N=C2NN=C(c3ccc(F)cc3)CS2)cc1OC"
false (0)

Subsequent entry: "Cc1cc(C)c2c(=O)[nH]c(SCC(=O)Nc3cccc(S(=O)(=O)N(C)C)c3)nc2n1"
false (0)

Subsequent entry: "CCCCCCCCCCCCOB(OCCCCCCCCCCCC)OCCCCCCCCCCCC"
false (0)

FYI, the data here is from PubChem BioAssay (NCI).
